This listing pairs compounds with measured pIC50.
molecular target: Amyloid-beta precursor protein (Homo sapiens, UniProt P05067); experiment: Inhibition of amyloid beta 42 secretion transfected in human H4 cells incubated for 20 to 24 hrs by LPECL assay
Sequence (P05067 whole entry): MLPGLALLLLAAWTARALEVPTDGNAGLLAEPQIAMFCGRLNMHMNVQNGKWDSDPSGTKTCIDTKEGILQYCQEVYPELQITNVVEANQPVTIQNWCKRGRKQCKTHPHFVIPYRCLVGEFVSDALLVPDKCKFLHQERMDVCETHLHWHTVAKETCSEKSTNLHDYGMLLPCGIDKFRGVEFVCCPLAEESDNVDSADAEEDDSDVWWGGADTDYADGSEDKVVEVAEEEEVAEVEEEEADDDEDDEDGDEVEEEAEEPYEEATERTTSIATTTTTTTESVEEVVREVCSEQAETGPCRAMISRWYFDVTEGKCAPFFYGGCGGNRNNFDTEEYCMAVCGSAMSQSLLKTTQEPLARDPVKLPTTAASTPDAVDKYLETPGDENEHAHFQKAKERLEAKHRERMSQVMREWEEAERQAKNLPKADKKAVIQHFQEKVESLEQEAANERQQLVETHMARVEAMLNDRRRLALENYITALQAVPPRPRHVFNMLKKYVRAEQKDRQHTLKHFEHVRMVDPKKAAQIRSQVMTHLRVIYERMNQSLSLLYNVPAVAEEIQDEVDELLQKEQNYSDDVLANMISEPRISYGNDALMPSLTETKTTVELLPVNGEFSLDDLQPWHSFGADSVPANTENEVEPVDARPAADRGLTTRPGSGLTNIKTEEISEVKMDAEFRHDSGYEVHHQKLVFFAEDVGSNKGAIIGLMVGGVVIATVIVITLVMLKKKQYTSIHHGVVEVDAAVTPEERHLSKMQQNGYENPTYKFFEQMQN
pIC50 (log units): -log10 of the concentration in mol/L.

# count of solved cases: 6
compound-structure-string: COc1cc(/C=C/c2cc(/C=C/c3ccc(O)c(OC)c3)n(-c3ccc(C)cc3)n2)ccc1O
readout-type: pIC50
measured-value: 5.30
//
compound-structure-string: COc1cc(/C=C/c2cc(/C=C/c3ccc(O)c(OC)c3)n(-c3cc(Cl)cc(Cl)c3)n2)ccc1O
readout-type: pIC50
measured-value: 5.46
//
compound-structure-string: COc1cc(/C=C/c2cc(/C=C/c3ccc(O)c(OC)c3)n(-c3cccc([N+](=O)[O-])c3)n2)ccc1O
readout-type: pIC50
measured-value: 4.85
//
compound-structure-string: COc1cc(/C=C/c2cc(/C=C/c3ccc(O)c(OC)c3)n(Cc3ccccc3)n2)ccc1O
readout-type: pIC50
measured-value: 4.82
//
compound-structure-string: COc1cc(/C=C/c2cc(/C=C/c3ccc(O)c(OC)c3)n(-c3ccc(Cl)nn3)n2)ccc1O
readout-type: pIC50
measured-value: 5.32
//
compound-structure-string: COc1cc(/C=C/c2cc(/C=C/c3ccc(O)c(OC)c3)on2)ccc1O
readout-type: pIC50
measured-value: 5.17

Attention now shifts to the item below.
[ask] Looking for the measured pIC50 of `COc1cc(/C=C/c2cc(/C=C/c3ccc(O)c(OC)c3)n(-c3ccc(C(C)C)cc3)n2)ccc1O` , can you help?
[reply] 5.36
